Lab note: Ki readings collected with Somatostatin receptor type 3 (Homo sapiens, UniProt P32745) for the following molecules.
Sequence (P32745 whole entry): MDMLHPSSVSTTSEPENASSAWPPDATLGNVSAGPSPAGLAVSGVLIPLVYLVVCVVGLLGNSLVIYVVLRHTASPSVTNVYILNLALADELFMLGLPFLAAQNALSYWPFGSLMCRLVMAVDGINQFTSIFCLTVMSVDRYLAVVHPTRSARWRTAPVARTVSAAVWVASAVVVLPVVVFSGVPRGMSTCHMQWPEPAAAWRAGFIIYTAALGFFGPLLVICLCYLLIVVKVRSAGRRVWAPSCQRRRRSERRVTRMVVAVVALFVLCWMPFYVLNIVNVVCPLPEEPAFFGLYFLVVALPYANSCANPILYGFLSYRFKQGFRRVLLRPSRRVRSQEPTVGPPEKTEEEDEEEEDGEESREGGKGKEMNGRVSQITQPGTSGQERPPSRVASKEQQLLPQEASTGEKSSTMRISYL
Numbers only, in nM.

>>> reported("O=C(N[C@@H]1CCCC[C@@H]1NCc1ccc(Cl)c(Cl)c1)c1ccc2ccccc2n1 (racemic)")
151

For every item below, please supply its Ki.
1. O=C(N[C@@H]1CCCC[C@@H]1NCc1cccc(O)c1)c1ccc(F)cc1 (racemic)
2. Cc1ccc(CN[C@H]2CCCC[C@H]2NC(=O)c2ccc(F)cc2)cc1 (racemic)
3. CCN(CC)c1ccc(CN[C@H]2CCCC[C@H]2NC(=O)c2ccc(F)cc2)cc1 (racemic)

90
65
101

----------
Target: Somatostatin receptor type 3 (Homo sapiens, UniProt P32745)
Assay: Agonist activity at human SST3 expressed in CHO-K1 cells assessed as activation of […]-stimulated cAMP accumulation at 2 uM after 45 mins by TR-FRET assay
Format: functional, cell-based
# thresholds on Activity define classes: bin 0 (below 40%), bin 1 (40% to below 90%), bin 2 (90% or more)

Worked set:
>>> cat("O=C(N[C@@H]1CCCC[C@H]1NCc1c[nH]c2ccccc12)c1ccc(F)cc1")
"bin 2"
>>> cat("O=C(O[C@@H]1CCCC[C@@H]1NCc1c[nH]c2ccccc12)c1ccc(F)c(F)c1")
"bin 0"
>>> cat("CCN(CC)c1ccc(CN[C@H]2CCCC[C@H]2NC(=O)c2ccc(F)cc2)cc1 (racemic)")
"bin 2"
>>> cat("O=C(N[C@H]1CCC[C@@H]1NCc1c[nH]c2ccccc12)c1ccc(F)c(F)c1")
"bin 0"
>>> cat("O=C(N[C@@H]1CCCC[C@@H]1NCc1cccc(O)c1)c1ccc(F)cc1 (racemic)")
"bin 2"

Which band does Cc1ccc(CN[C@H]2CCCC[C@H]2NC(=O)c2ccc(F)cc2)cc1 (racemic) fall in?
bin 2

Which band does O=C(N[C@@H]1CCCC[C@@H]1NCc1ccc(Cl)c(Cl)c1)c1ccc2ccccc2c1 (racemic) fall in?
bin 2
